src = the NTF2 design screens of Basanta et al. (2020)

Test: protease stability score; higher = more stable; yeast display proteolysis, trypsin and chymotrypsin;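 further: log10 excess protease needed over predicted unfolded state with 0 meaning unfolded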
experimental_readout: protease stability score

{"sequence_data": "DETAVHAARRYLHAVTEGDPDKVNEQVDPNAKLTYGDKEVHGSSQVKEEVETQNRHSRIQYDSVTFDHQGDKVRADIDMKQDSNGRPKRRKMVVDFRAHNGKLQHVNAQDDN", "protease stability score": -0.224}
{"sequence_data": "DDEDAHRVADDANKALERGDERRLKELFDKDVRLHYGDKHVRGREEFEDWVQEWLRTVDKIRVEDYKVHDGVVRIRIRVDINGKDVSQTIDLDVKNGTIVNVVIKDN", "protease stability score": 1.43}
{"sequence_data": "DDRDAKHFKEIMKHGNFEEMVRQADPNVTITIGDREVHGRHQAQKFVDTLNDRIDHYQVDEIDVKGEKITAEVAMVVNGVRVDFVIVMHFENGRIKSVRIEATNEHAHENFRRIHS", "protease stability score": 0.561}
{"sequence_data": "DDNLRKHVDNLIKLLQDGNPQELVNMADPNARVTIGDEQVHGREQLHEDWHRQAKEMRIQWDHYRVDAQGDKVRVNATRTLQTNGKPDSERFHVEMRLQGDKLQTERVDVHK", "protease stability score": -0.265}
{"sequence_data": "DKEEARKVLEELIKAVESGNPKDLKKYGKDGVKYRLGDREAHGPEAVYKQFEQIHRQGVELRFEDTKVEGDKVTTRVTYRNGDETYTVQIHAEVRGGKIDRVEADLSDKAKEVVKHG", "protease stability score": -0.066}

Hey, can you go through the list below and give me protease stability score for every item?
1. DEDMYEQYESILHNERTGNEDEWVENIDPNARIRVGDKEVHGMEDNAREKRRHQEEQRVHFDIKRYSIHNGELDVTAKMRRDVNGQPAQDDVKVRIVVENGRIKEQDQDFDEDDDRRQKK
2. DEEAERIAEEFIRAQQTGDKDRLRKLMDPNARANVGDKRYHGMERWAKDVARTMHEQRVEIKDLKISVQGNKADVHIDLVVDHNGQPRRFDMRLDFRFNNGTIKEVSYDDKR
3. DDDQVRKYQHWLQEQEKGNEESLMEKMDPNVRIRVGNNEVHGREQAAHDIRKTQQEIRVQIDFKSVDAHNGRFDFKFTAQFEVNGTPFRYSASATVVAHNGHIKRVEIRVDPEVQRKRNK
4. DEELQENAEHLVKAMNKGDREEISRQVDKNASVEIGDQELHGREDIRRFFHEVHEEMRFHIEIKTVDVKGNEVTVHAEAENDDNGRPQTNEVDIDIKVKNGKITSMRIQYNS
5. DEREAASVAMRAAQAFVTGDEKTFVDNVDPNARVTVGDKHLHGREHIQDHIRKLKTRVDHHEIHDYKVHGNKATMDVRVVFDGRTRDKKIFAVAHNGRVQEMRVEDG

Response:
1: -0.037; 2: 0.391; 3: -0.079; 4: -0.539; 5: -0.299

Hi team, please reply with protease stability score for each item in this list.
1. DEEHITNVVKKMVNALRTGDPDTARELADPNVTAEYGDKEIRGREEVSKMVKLLHKQADHVTVKDVKVTNGHMEVRRRQHVNGKEIQMTLEARVHNGKIQEMRVHKK
2. DEDRKAREFIHDEQRAFEQNNPDDIVRLADPNVRVNIGEHDVRGHEDFKKWVDELLEKYDQINFKVTSVSVRGDHIEATVMIQNQKNGEDDTHVVLITLKDHNGRLLIEMIQER
3. DDEHFDHLRKVLKTGDFERLNQLMDPNASADIGDKRYHGRESLEEMFRKLHTQIDHIEFKSMDLQGNKLKYTLVMTFNGREVTVTVVVEVQNGHIKRISIQARNESDREKLKHALD
4. DEEEVEEMVDQALTAIRTGDEDTFAHQFDENARMEVGDTTLHGRDEIRKEMKKFRDRADHIRIQDYKVKGNKIVIVFVARFDGRHAQITIVWVFSNGRVKHASINPNQVQEFRK
5. DETEKADQMVHDLEEAIKTGDPDEISNQADPNVSFHYGDKTFHGREKLAEWFLELQKRVDHMHLDIKDIEVQGDKATITMQMVLDKNGDDERKDIRVEAQYHNGRLTISFAEAR
6. DEENRKDAEKYMKVTENNNPDEVSKLVDPNAKLEIGDKTYHGDEWMMDQQQQDRDQARIEVKRVDIKVHNGQINARVRFVKEENGKPDRRDVDIKMNIHNGRLKRAQFKHTE
7. DEDDARKVRKLAKTNDWDELVHRFRDDVRFKVGNQRYSGRENAQTVAQELRKKVDHIRITSLHSTPGHVVLHMTMVVNGRKITVVIFIRMDNGRAVSFSLRVRDEEVKKHITQAFS

Response:
-0.305
0.315
1.46
0.279
2.15
0.064
0.141

// input: 2 sequences below; output: protease stability score for each
1. DDEQRKDLAHDFLHAWKKGDEKLFDNLVDENVSAQYGDKTYHGRESISTFVRNYKKRADHFRVHDMQLSNGSVRMDVEAEVNGVDVRVTFHVFFHNGRVKSLQQDFTDEDVKRRHES
2. DEHQRRKAKEFLDALRDGNPDDVKKYVDPNARRTVGDKSIHGRDQISHHVEKLKKKMRIEFRIQTITVHGNHIDIKAKMEFEINGKPNTHTFSQSMHAHNGKIKDIHVRIPEEVLRKSKR

Response:
[0.604, -0.06]

Give protease stability score for each of the items listed below.
1. DDKDLRRVADVMETNDPDRLADLVDENARFIYGDKTYKGEKEATKVWETLYHQVDHKQIHTWDVRGDKLSVKMEMVVNGHDIQVHVRVDVRNGRIKQVELRATNEDDQRFIKRIWG
2. DEEQVNKVRTLVESNDEKTMQELADPNAKAEIGNKRFHGMHRAAHVLTKLRKQADTVRYREIDVHNGQVHAHFSMHFNGKRIDARVVLKVRNGRLRHMKIEATDPHLEEELERQVQ
3. DEDHQAEKIFRDLVEAFKNGDEKRAEELFDPNARLQYGDKTYHGRKAASRLVSHVRTEFDHVDWQIKSVTRTGDKIDIDVDATADHNGHQDKFKIIITLKVTNGKAVLKEVRFK

Response:
0.218
0.268
1.94

----------
Hi there, I'd appreciate the recorded protease stability score for every entry that follows.
Assay: protease stability score; higher = more stable; yeast display proteolysis, trypsin and chymotrypsin;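 further: log10 excess protease needed over predicted unfolded state with 0 meaning unfolded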
Give bare numbers.

# example entries with known answers
{"sequence_data": "DEQAKEVAEHWWEAVKKNDPTQAKENADKDVRARVGDQEIHGREDLATWLDQQKREMRIDLQIDSVSVSNGTLDIKAKMQVEDNGTPEHNTVEASMVVHNGRVKQFHIRVTK", "value_reported": 0.96}
{"sequence_data": "DQRDVKKAEHLLRILETGNESELKKMMDPNARARVGDTTYHGMDDFVRKLTHMRDRAKFEIKEYSATDHNGHIRVHVRREVNFNGRPDRVSFIVRFDIENGKVRSVIFNLPRELLEREKK", "value_reported": 0.429}
{"sequence_data": "DENKENEQFLRNYSKQLKDGNEEQLKRNFDPDAKVRYGDKDVSGREQIQKRIADEARKVDHYEITVKRVEKRGDHVRVEFDVRRHVNGKEESMDVVVIFVKHNGRMVISTVTID", "value_reported": 0.036}
{"sequence_data": "DQDLHTRFKTWVENLHEGDEDNLKSLADPNAKIKVGNKEYHGMDEFKKDQKRRRDQMRIQIEIDSVTVQGNKATAEFEMTLDVNGKPVRMRFRVQFEVHNGTIQSWEAQVSPEQQEKLDR", "value_reported": 0.967}

# evaluate next
Request: Quick one: protease stability score for "DEDLNDMAVRMAEILNEGNEDEYNKQIDPHARFVIGDKEYSGHEHFKKEIQRQNKEMRVTVNLHRWDATNGEMHLVIHYSWNVNGRPTTIHVHFRITARGDKFKQIDVHMDPDELRRVDS" ?
Response: 0.765

----------
Experiment: protease stability score; higher = more stable; yeast display proteolysis, trypsin and chymotrypsin;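 further: log10 excess protease needed over predicted unfolded state with 0 meaning unfolded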
Assignment: determine reported protease stability score for the given sequences.
Give bare numbers.

{"sequence_data": "DEQLRDRVTQLFKVWQTGDPKKVSEMFDKDARLEYGDKTVHGMEEARHQQDTRRREARLSLDIRSINVQGNQVEIDVRIEEDENGKPDTKQVTIRIRARNGRIHNAKLQDDG", "value_reported": 0.1}
{"sequence_data": "DERDLKTFLDILERNDEDKLQTMADENVELQVGDKTFHGREEFQKYVQHVRDQVDRVDVRDYRIDNGRASVRVIFDFNGKNLDVVMVFSVRNGRVKYFSIQYRDEEVKKMLEEIEG", "value_reported": -0.172}
{"sequence_data": "DEKEAKKLLEQFAKKVVNGDYEEVVKHVKDDGEAEYGDERKHGPDAVETFIRKYQKLGIKVTYDEVHVEGDTVTVKVRADYAGQTAHFKFQYHVRDQRLDRVEVKYDETAQKMIKHG", "value_reported": 0.542}
{"sequence_data": "DKHLEDLARTLVHALRTGDPQMINHLFDENARVEVGNRRVHGREDANQRMKEINSQARMHVRLTSLRVDENRADLTVDASARVNGQPNTLRYQFWFHQHNGRITSMSARMSEHDVKQFES", "value_reported": -0.278}
{"sequence_data": "EQEVVHLAHRFIEAVQHNSTEDANKNVDPNAKFRVGDHVVNGREEVNEKVRKDHEKIRLQIRSVTLEDQGDKVEIRMDVEFDVNGKPLHHNLKMTVEAHNGKIVQLDNQMDPTELKELKQ", "value_reported": -0.152}
{"sequence_data": "DEEASKRFEKFQHLLRDGNEDRVQKLVDPNVKFDLGSTSLHGMEEVARTLVQRYRSIRIRQEIDTYEVKGDTVRFKQKVQWNINGQPFSDHITFEAHQTNGKFSHVVIRIDPQLLEELRK", "value_reported": 0.503}
{"sequence_data": "DEHTEKKRADEIKHAMRENDEKKLNDQMPPDVRMDVGDKQLHGRDEVIRHLQTQLRHADHVEIKHVEVTNGRVSIDAVFDVNGTRKRQVVVFVFHNGRAKEIHIEDK", "value_reported": 0.861}
{"sequence_data": "DEEHNERVAEEINRIMRDGDEERFEEMVDEDVKLQVGDKTWSGREEARKWQHEMWNSVDHVHIQDFEVSGDEIVIHFQLEHNGRREQAVVIVRFSNGRIKMMTIETQ", "value_reported": 1.41}
{"sequence_data": "DDHAMRKFHELLKAIETGDEKKITDLADKHARFEYGDTEVHGRHKYAKEATDRRREMRIEIKDMKTRVDENHVQINNNYQVQVNGEPHTYTVQVVVRMDNGRLKQVQIRVSEEIRDRNKT", "value_reported": -0.166}
{"sequence_data": "DEEKEKEAADRASTNDPDEFRKMVDEDARVVVGEKQWHGREKVQKFYEDQKKRIDHLRVEHVDKDGNRVVITQFYQVNGVRVHAIFIITVHNGRLKMRSVQFTDEHAERRMKKAVS", "value_reported": 0.528}

Request: I would be grateful if you could share the reported protease stability score for "DSKQRAKEFVKEFQRVLQKGDPDQAEKMADKDVRINVGDKTYHGREEMWKMAQEWQRKYDEMSITVSRIQTRPGRIVANAKLKLDNNGTTDDTHLVIVVREHNGHYRAVHIRLG" .
Response: 0.992
